I'd appreciate it if you could supply nuclear beta-catenin stimulation values for the items below.
test: Wnt pathway potentiators raising nuclear beta-catenin – imaging, WNT3A-conditioned medium, mouse C2C12, NPC library, primary screen (AID 1117326); details: stimulation, at 2 µM, stronger effect = higher value; further: reference of the scale not given here
The reply should contain only the number, in %.

Value lookup for nuclear beta-catenin stimulation; key = CN1Cc2c(N)cccc2C(c2ccccc2)C1 (stereo not drawn)
1.5

Value lookup for nuclear beta-catenin stimulation; key = OCc1cc(C(O)CNCCCCCCOCCCCc2ccccc2)ccc1O (stereo not drawn)
0.3

Value lookup for nuclear beta-catenin stimulation; key = CC(C)(C)C(O)/C=C/c1ccc2c(c1)OCO2 (stereo not drawn)
1.5

Value lookup for nuclear beta-catenin stimulation; key = Cc1ccc(C(=O)C(C)CN2CCCCC2)cc1 (stereo not drawn)
4.3

Value lookup for nuclear beta-catenin stimulation; key = `COc1cc(OC)cc(OC)c1`
-0.8

Value lookup for nuclear beta-catenin stimulation; key = `O=C(O)c1ccccc1O`
-0.8

Value lookup for nuclear beta-catenin stimulation; key = `COc1ccc(C(=O)c2ccccc2)c(O)c1`
1

Value lookup for nuclear beta-catenin stimulation; key = `O=C(O)c1cccnc1Nc1cccc(C(F)(F)F)c1`
0.9

Value lookup for nuclear beta-catenin stimulation; key = NCC1CCC(C(=O)Oc2ccc(CCC(=O)O)cc2)CC1 (stereo not drawn)
1

Value lookup for nuclear beta-catenin stimulation; key = NC(CO)C(=O)NNCc1ccc(O)c(O)c1O (stereo not drawn)
3.8

Value lookup for nuclear beta-catenin stimulation; key = `COc1ccc(C(=O)CC(=O)c2ccc(C(C)(C)C)cc2)cc1`
3

Value lookup for nuclear beta-catenin stimulation; key = Cc1ccc(S(=O)(=O)NC(=O)NN2CC3CCCC3C2)cc1 (stereo not drawn)
1.2

Value lookup for nuclear beta-catenin stimulation; key = O=C(OCC(O)CO)c1ccccc1Nc1ccnc2cc(Cl)ccc12 (stereo not drawn)
-0.3

Value lookup for nuclear beta-catenin stimulation; key = `C=C[C@@]1(C)CC(=O)[C@]2(O)[C@@]3(C)[C@@H](O)CCC(C)(C)[C@@H]3[C@H](O)[C@H](OC(C)=O)[C@@]2(C)O1`
0.6

Value lookup for nuclear beta-catenin stimulation; key = `Nc1c2c(nc3c1CCC3)CCCC2`
0.3

Value lookup for nuclear beta-catenin stimulation; key = `COc1ncnc(NS(=O)(=O)c2ccc(N)cc2)c1OC`
3.5

Value lookup for nuclear beta-catenin stimulation; key = `CC(C)[C@H](N)C(=O)OCCOCn1cnc2c(=O)[nH]c(N)nc21`
2.1

Value lookup for nuclear beta-catenin stimulation; key = OCC(O)CN1CCN(c2ccccc2)CC1 (stereo not drawn)
0.8

Value lookup for nuclear beta-catenin stimulation; key = `Nc1ncnc2nc[nH]c12`
-0.4

Value lookup for nuclear beta-catenin stimulation; key = CO/N=C1\CN(c2nc3c(cc2F)c(=O)c(C(=O)O)cn3C2CC2)CC1CN (stereo not drawn)
3.4

Value lookup for nuclear beta-catenin stimulation; key = `CC(=O)OC/C=C(C)/C=C/C=C(C)/C=C/C1=C(C)CCCC1(C)C`
3.9

Value lookup for nuclear beta-catenin stimulation; key = `CCOC(=O)C(C)(C)Oc1ccc(Cl)cc1`
1.6

Value lookup for nuclear beta-catenin stimulation; key = `CN1CCC(=C2c3ccccc3CC(=O)c3sccc32)CC1`
-1.2

Value lookup for nuclear beta-catenin stimulation; key = `COc1cc2c(cc1OC)-c1cc(=Nc3c(C)cc(C)cc3C)n(C)c(=O)n1CC2`
-0.6

Value lookup for nuclear beta-catenin stimulation; key = O=C(O)CSCC(=O)NC1CCSC1=O (stereo not drawn)
1.1

Value lookup for nuclear beta-catenin stimulation; key = CCN(CC)CC1CCCCN1CC(=O)N1c2ccccc2C(=O)Nc2cccnc21 (stereo not drawn)
1.6

Value lookup for nuclear beta-catenin stimulation; key = `CN1C(C)(C)CCCC1(C)C`
0.5

Value lookup for nuclear beta-catenin stimulation; key = CC(C)COCC(CN(Cc1ccccc1)c1ccccc1)N1CCCC1 (stereo not drawn)
-1.8

Value lookup for nuclear beta-catenin stimulation; key = CC(C(=O)O)c1ccc(C(=O)c2cccs2)cc1 (stereo not drawn)
-0.7

Value lookup for nuclear beta-catenin stimulation; key = C=CCc1ccccc1OCC(O)CNC(C)C (stereo not drawn)
-0.5

Value lookup for nuclear beta-catenin stimulation; key = `Cc1cc(C2CCCCC2)n(O)c(=O)c1`
14.3

Value lookup for nuclear beta-catenin stimulation; key = `CC(=O)Nc1ccc(O)cc1`
-0.2

Value lookup for nuclear beta-catenin stimulation; key = `O=C(O)[C@@H]1[C@H]2C[C@H]3c4[nH]c5ccccc5c4CCN3C[C@@H]2CC[C@@H]1O`
1.8

Value lookup for nuclear beta-catenin stimulation; key = `COC(=O)C1=C(C)NC(C)=C(C(=O)O[C@@H]2CCCN(Cc3ccccc3)C2)[C@@H]1c1cccc([N+](=O)[O-])c1`
5.8

Value lookup for nuclear beta-catenin stimulation; key = `COc1ccc(CN(CCN(C)C)c2ncccn2)cc1`
2.3

Value lookup for nuclear beta-catenin stimulation; key = `Cc1cc(NC(=O)C2=C(O)c3ccccc3S(=O)(=O)N2C)no1`
1.7

Value lookup for nuclear beta-catenin stimulation; key = `CCN(CC)CCNC(=O)c1ccc(NC(C)=O)cc1`
1

Value lookup for nuclear beta-catenin stimulation; key = `CN(C)CCCSc1ccccc1NC(=O)/C=C/c1ccccc1`
1.1

Value lookup for nuclear beta-catenin stimulation; key = `C/C=C(/C(=C/C)c1ccc(O)cc1)c1ccc(O)cc1`
2.2

Value lookup for nuclear beta-catenin stimulation; key = COC(=O)CCc1ccc(OCC(O)CNC(C)C)cc1 (stereo not drawn)
0.1

Value lookup for nuclear beta-catenin stimulation; key = `COc1cc(OC)c(C(=O)CCCN2CCCC2)c(OC)c1`
0.3

Value lookup for nuclear beta-catenin stimulation; key = `CO[C@@H]1[C@@H](OC(N)=O)[C@@H](O)[C@H](Oc2ccc3c(O)c(NC(=O)c4ccc(O)c(CC=C(C)C)c4)c(=O)oc3c2C)OC1(C)C`
1.5

Value lookup for nuclear beta-catenin stimulation; key = `CCCN1CCCC[C@H]1C(=O)Nc1c(C)cccc1C`
-1.3

Value lookup for nuclear beta-catenin stimulation; key = `CN(C)CCc1c[nH]c2ccc(CS(=O)(=O)N3CCCC3)cc12`
1.6

Value lookup for nuclear beta-catenin stimulation; key = `C[N+](C)(C)CCCCCC[N+](C)(C)C`
-1.6

Value lookup for nuclear beta-catenin stimulation; key = `CCOC(=O)[C@H](CCc1ccccc1)N[C@@H](C)C(=O)N1CCC[C@H]1C(=O)O`
1.5

Value lookup for nuclear beta-catenin stimulation; key = `CN(CCCN1c2ccccc2CCc2ccccc21)CC(=O)c1ccc(Cl)cc1`
-1.4

Value lookup for nuclear beta-catenin stimulation; key = CCN(CC)CCOC(=O)C(c1ccccc1)C1CCCCC1 (stereo not drawn)
0.5
